Cited source: ChEMBL document CHEMBL1121424

system: Streptococcus pneumoniae; experiment: Tested for inhibition of visible growth of Streptococcus pneumoniae; assay type: functional
MEASURED_ATTRIBUTE: MIC (µg/mL)
Numbers only, in µg/mL.

# COMPOUND, TARGET_DESC, MEASURED_ATTRIBUTE, QUANTITATIVE_READOUT
data = [
    ("CC1=C(C(=O)O)N2C(=O)C(NC(=O)[C@H](N)c3ccc4c(c3)OCCO4)C2SC1 (stereo not given in full)", "Streptococcus pneumoniae", "MIC", 0.8),
]

Could you tell me MIC for each of these compounds? They are listed below.
1. CC1=C(C(=O)O)N2C(=O)C(NC(=O)[C@H](N)c3ccc4c(c3)CCO4)C2SC1 (stereo not given in full)
2. NC(C(=O)NC1C(=O)N2C(C(=O)O)=C(CSc3cn[nH]n3)CS[C@H]12)c1ccc2c(c1)CCO2 (stereo not given in full)
3. CC1=C(C(=O)O)N2C(=O)C(NC(=O)C(N)c3cccc4c3OCO4)C2SC1 (stereo not given)
4. CC1(C)SC2C(NC(=O)C(C(=O)O)c3ccc4c(c3)OCO4)C(=O)N2C1C(=O)O (racemic)
5. CC1(C)S[C@@H]2[C@H](NC(=O)C(C(=O)O)c3ccccc3)C(=O)N2[C@H]1C(=O)O (stereo not given in full)
6. CC(=O)OCC1=C(C(=O)O)N2C(=O)C(NC(=O)C(N)c3ccc4c(c3)OCO4)C2SC1 (racemic)
7. CC(=O)OCC1=C(C(=O)O)N2C(=O)[C@@H](NC(=O)Cc3cccs3)[C@H]2SC1
8. CC1=C(C(=O)O)N2C(=O)C(NC(=O)C(N)c3ccc4c(c3)OCCO4)C2SC1 (mixture of isomers)

Result:
1: 0.4; 2: 0.1; 3: 6.2; 4: 0.2; 5: 0.4; 6: 0.4; 7: 0.1; 8: 1.6

I have 5 compounds here; please give me MIC for each one.
1. Cc1nnc(SCC2=C(C(=O)O)N3C(=O)C(NC(=O)[C@H](N)c4ccc5c(c4)OCO5)C3SC2)s1 (stereo not given in full)
2. Cn1nnnc1SCC1=C(C(=O)O)N2C(=O)C(NC(=O)[C@H](N)c3ccc4c(c3)OCO4)C2SC1 (stereo not given in full)
3. CC(=O)OCC1=C(C(=O)O)N2C(=O)C(NC(=O)C(O)c3ccc4c(c3)CCO4)C2SC1 (racemic)
4. CC(=O)OCC1=C(C(=O)O)N2C(=O)C(NC(=O)C(O)c3ccc4c(c3)OCO4)C2SC1 (racemic)
5. CC(=O)OCC1=C(C(=O)O)N2C(=O)C(NC(=O)C(N)c3cccc4c3OCO4)C2SC1 (racemic)

Result:
1: 0.1; 2: 0.1; 3: 0.1; 4: 0.1; 5: 0.2

Here are 6 compounds. What values of MIC were reported for them?
1. CC1=C(C(=O)O)N2C(=O)C(NC(=O)C(N)c3ccc4c(c3)CCO4)C2SC1 (racemic)
2. CC1=C(C(=O)O)N2C(=O)[C@@H](NC(=O)[C@H](N)c3ccccc3)[C@H]2SC1 [CEPHALEXIN ANHYDROUS]
3. Cc1nnc(SCC2=C(C(=O)O)N3C(=O)C(NC(=O)[C@@H](N)c4ccc5c(c4)OCO5)C3SC2)s1 (stereo not given in full)
4. CC(=O)OCC1=C(C(=O)O)N2C(=O)C(NC(=O)[C@H](N)c3ccc4c(c3)CCO4)C2SC1 (stereo not given in full)
5. CC1=C(C(=O)O)N2C(=O)C(NC(=O)[C@@H](N)c3ccc4c(c3)OCO4)C2SC1 (stereo not given in full)
6. CC1=C(C(=O)O)N2C(=O)C(NC(=O)[C@H](N)c3ccc4c(c3)OCO4)C2SC1 (stereo not given in full)

Result:
1. 3.1
2. 1.6
3. 0.8
4. 0.1
5. 50
6. 1.6

Item N[C@@H](C(=O)NC1C(=O)N2C(C(=O)O)=C(CSc3c[nH]nn3)CSC12)c1ccc2c(c1)OCO2 (stereo not given in full) was tested on Streptococcus pneumoniae; the reported MIC is 0.2
